The measurements presented in this section are drawn from the supplement of paper PMC10307832.

System: SW 1573
procedure.summary: relative viability (nuclei count vs DMSO), 5 days (fraction); higher = more cells survive
test.parameters: first compound 0.08 µM
Overview of reported relative viability across a group of compounds:

{"compound": "COc1nc(C)cnc1NS(=O)(=O)c1cccnc1-c1ccc(-c2nnco2)cc1 [Zibotentan] + Nc1nc2[nH]cc(CCc3ccc(C(=O)N[C@@H](CCC(=O)O)C(=O)O)cc3)c2c(=O)[nH]1 [Pemetrexed] (partner 0.2 µM)", "target": "SW 1573", "relative viability": 0.872}
{"compound": "COc1nc(C)cnc1NS(=O)(=O)c1cccnc1-c1ccc(-c2nnco2)cc1 [Zibotentan] + Nc1ncn([C@H]2C[C@H](O)[C@@H](CO)O2)c(=O)n1 [Decitabine] (partner 2 µM)", "target": "SW 1573", "relative viability": 0.611}
{"compound": "O=c1cc(-c2cccc3c2Sc2ccccc2S3)oc(N2CCOCC2)c1 + CC(=O)c1c(C)c2cnc(Nc3ccc(N4CCNCC4)cn3)nc2n(C2CCCC2)c1=O [Palbociclib] (partner 0.5 µM)", "target": "SW 1573", "relative viability": 0.426}
{"compound": "COc1nc(C)cnc1NS(=O)(=O)c1cccnc1-c1ccc(-c2nnco2)cc1 [Zibotentan] + CCNC(=O)c1noc(-c2cc(C(C)C)c(O)cc2O)c1-c1ccc(CN2CCOCC2)cc1 [Luminespib] (partner 0.01 µM)", "target": "SW 1573", "relative viability": 0.341}
{"compound": "O=c1cc(-c2cccc3c2Sc2ccccc2S3)oc(N2CCOCC2)c1 + Cc1nc(NC(=O)N2CCC[C@H]2C(N)=O)sc1-c1ccnc(C(C)(C)C(F)(F)F)c1 [Alpelisib] (partner 2 µM)", "target": "SW 1573", "relative viability": 0.719}
